test system: SK-MEL-5; experiment: NCI tumour cell line growth inhibition, 48 h
Calls of active or inactive are those of the source. Rule as the data show it: active = GI50 up to about 1.1 µM and inactive = higher.
measured-endpoint: GI50

Guide cases for GI50, answers given:
>  <compound>
O=C(NNS(=O)(=O)c1ccc(Br)cc1)c1ccc(Cl)cc1NC(=O)C12CC3CC(CC(C3)C1)C2

>  <GI50>
10.9 µM (inactive)

$$$$
>  <compound>
FC(F)(F)C1(C(F)(F)F)OC(Cl)(Cl)C(Cl)(Cl)O1

>  <GI50>
> 10 µM (inactive)

$$$$
>  <compound>
CC(C)(C)C1=C(Br)C(C(C)(C)C)OP1(=O)O (centres undefined)

>  <GI50>
> 100 µM (inactive)

$$$$
>  <compound>
CCN(CC)CCCNC(=O)Cc1ccccc1Nc1c(Cl)cccc1Cl

>  <GI50>
3.85 µM (inactive)

$$$$
>  <compound>
Cc1nnc2c3c(-c4ccccc4)c(-c4ccccc4)oc3nc(N(C)C)n12

>  <GI50>
35.2 µM (inactive)

$$$$

Lab note: each compound below needs its GI50 filled in.
1. CC(=O)OCc1cc(=O)n(C)c2c3c4c(cc12)c(C)cc(=O)n4CO3
2. CC(C)c1cccc(=O)c(O)c1 [HINOKITIOL]
3. COc1cc2c(cc1OC)C1C[C@]3(CCN1CC2)C(=O)N(c1ccccc1)C(=O)N3C(C)=O (some centres undefined)

Reply:
1. 1.66 µM (inactive)
2. 24.5 µM (inactive)
3. > 200 µM (inactive)

Lab note: each compound below needs its GI50 filled in.
1. C=C1CC(Cn2cc(C)c(=O)[nH]c2=O)(c2ccc(Cl)cc2)OC1=O (centres undefined)
2. Nc1ccc(Nc2cc(=O)[nH]c(=O)[nH]2)cc1Cl
3. CCOC(=O)c1cnc2c(ccc3ncccc32)c1OCC
4. CCCCC1(C2c3ccccc3Oc3ccccc32)C(=O)N(c2ccccc2)N(c2ccccc2)C1=O
5. O=C(Oc1ccc(OC(Oc2ccccc2)c2ccccc2)cc1)c1ccccc1 (centres undefined)
6. Cc1cc(NS(=O)(=O)c2ccc(NC(=O)c3cccc4c(Nc5ccc(S(=O)(=O)Nc6cc(C)on6)cc5)c5ccc(Cl)cc5nc34)cc2)no1
7. CCN(C(=O)/C=C/c1ccco1)c1ccccc1
8. CC1(C)C(c2ccccc2)=NN(O)c2ccccc21

Reply:
["2.67 µM (inactive)", "> 100 µM (inactive)", "> 100 µM (inactive)", "34.3 µM (inactive)", "22.1 µM (inactive)", "56.4 µM (inactive)", "> 100 µM (inactive)", "> 100 µM (inactive)"]

Lab note: each compound below needs its GI50 filled in.
1. COc1cc(OC)c(C/C=C/c2ccccc2)cc1O
2. C=C[C@@]1(O)CCCC2=C(C(=O)OCC)CC[C@]21C
3. CNc1ncc(-c2nnnn2-c2ccccc2)c(CN(C)C)n1
4. Cn1c2c(c3ccccc31)CCN1C(=O)CN(C(=O)C3CCCCC3)CC21 (centres undefined)

Reply:
1: 15.8 µM (inactive); 2: 38.1 µM (inactive); 3: > 100 µM (inactive); 4: > 100 µM (inactive)

Lab note: each compound below needs its GI50 filled in.
1. CC1=C(c2cc(C(=O)Nc3ccc(Cl)cc3)nc(S)n2)Sc2ccccc2N1
2. c1ccc2c3nnc(c2c1)SCCCSc1nnc(c2ccccc12)SCCCS3
3. CN(O)C(=O)c1ccccc1
4. Cc1cc(NC(=O)C(=O)Cc2cnc3ccccc3n2)c(S(=O)(=O)O)cc1Cl

Reply:
1: > 100 µM (inactive); 2: 23 µM (inactive); 3: > 100 µM (inactive); 4: > 100 µM (inactive)

###

system: HT-29; assay: NCI tumour cell line growth inhibition, 48 h
Calls of active or inactive are those of the source. Rule as the data show it: active = GI50 up to about 1.1 µM and inactive = higher.
measured-endpoint: GI50

Guide cases for GI50, answers given:
>  <compound>
COc1cc2c(cc1O)[C@@]1(Cc3ccc(OC)c(OC)c3)CCC(=O)N1CC2

>  <GI50>
> 100 µM (inactive)

$$$$
>  <compound>
COc1cc([C@@H]2c3cc4c(cc3C(N)C3COC(=O)[C@@H]32)OCO4)cc(OC)c1O (some centres not stated)

>  <GI50>
0.232 µM (active)

$$$$
>  <compound>
FC(F)(F)C1(C(F)(F)F)OC(Cl)(Cl)C(Cl)(Cl)O1

>  <GI50>
> 10 µM (inactive)

$$$$
>  <compound>
CC1=NN(c2ccccc2)C(=O)C1/N=N/c1ccc(S(N)(=O)=O)cc1 (configuration not stated)

>  <GI50>
> 100 µM (inactive)

$$$$
>  <compound>
CC[C@@]1(O)C(=O)OCc2c1cc1n(c2=O)Cc2c-1nc1ccccc1c2/C=N\NC(=O)C(N)CO (some centres not stated)

>  <GI50>
2.86 µM (inactive)

$$$$

Lab note: each compound below needs its GI50 filled in.
1. CCCCCCCCCCNC(=S)OC
2. CC[N+](CC)(CC)Cc1cn(S(=O)(=O)c2ccccc2)c2ccccc12
3. CCOC(=O)C1C(c2ccc(OC)cc2)c2c(nn(-c3ccccc3)c2O)CC1(C)O (configuration not stated)

Reply:
34.3 µM (inactive)
> 100 µM (inactive)
28 µM (inactive)

Lab note: each compound below needs its GI50 filled in.
1. CCOC(=O)C1CSCCSC1
2. C=CCCC(CCC=C)(C(=O)O)C(=O)O
3. O=C1c2ccccc2C(=O)c2c1cc(S(=O)(=O)O)c(O)c2O
4. Cc1ccsc1/C=N/Nc1cc(C)c2ccccc2n1
5. CC(C)(C)C1CCC2c3c([nH]c4ncccc34)C3C(=O)N(c4ccccc4)C(=O)C3C2C1 (configuration not stated)
6. NS(=O)(=O)c1ccc(NC(=O)Nc2cccc3ccccc23)cc1
7. CN(C)/N=N/c1nc2c(c(=O)n(C)c(=O)n2C)n1CC(O)CO (configuration not stated)
8. CN(O)C(=O)c1ccccc1

Reply:
["> 100 µM (inactive)", "> 100 µM (inactive)", "> 100 µM (inactive)", "3.61 µM (inactive)", "> 100 µM (inactive)", "60.3 µM (inactive)", "> 100 µM (inactive)", "> 100 µM (inactive)"]

Ask: Consider the compound "CN(Cc1ccccc1)/C(=N\C#N)N(Cc1ccccc1)Cc1ccccc1" and give its measured GI50.
Reply: 14.7 µM (inactive)

###

system: RPMI-8226; assay: NCI tumour cell line growth inhibition, 48 h
Calls of active or inactive are those of the source. No stated cut-off is given here; in the data, active = GI50 up to about 1.1 µM and inactive = higher.
Answer with one of the outcomes given here: class 1 (active), class 0 (inactive)

>  <molecule>
CC(C)(C)NC(=O)C12C3C4C1C1C2C3C41I (stereo not given)

>  <target-desc>
RPMI-8226

>  <label-value>
class 0

$$$$

Ask: For this molecule, state the assay outcome: "Cc1nc(N)sc1C(=O)/C=C\c1ccc2c(c1)OCO2"
Reply: class 0

Ask: For this molecule, state the assay outcome: "C1=Nc2ccccc2Cn2nncc21"
Reply: class 0

Ask: For this molecule, state the assay outcome: C=C1CC(Cn2cc(C)c(=O)[nH]c2=O)(c2ccc(Cl)cc2)OC1=O (stereo not given)
Reply: class 1

###

tested on: A498; test: NCI tumour cell line growth inhibition, 48 h
Calls of active or inactive are those of the source. Rule as the data show it: active = GI50 up to about 1.1 µM and inactive = higher.
Answer with one of the outcomes given here: active, inactive

Ask: For this molecule, state the assay outcome: "CCOP(=O)(OCC)/C(C#N)=C/c1ccc(-c2cc(C(F)(F)F)cc(C(F)(F)F)c2)o1"
Reply: inactive

Ask: For this molecule, state the assay outcome: "Nc1nc(O)c(N)c(NCCOCP(=O)(O)O)n1"
Reply: inactive

Ask: For this molecule, state the assay outcome: "CC(C)c1cccc(=O)c(O)c1"
Reply: inactive

Ask: For this molecule, state the assay outcome: CC1CCN(CCC(=O)CC(c2ccccc2)c2c(O)c3ccccc3oc2=O)CC1 (configuration not stated)
Reply: inactive

Ask: For this molecule, state the assay outcome: "COC(=O)c1sc2c(=O)c(C(=O)OC)c(C(=O)OC)sc2c(=O)c1C(=O)OC"
Reply: inactive

Ask: For this molecule, state the assay outcome: "O=C(O)C(F)(F)C(F)(F)C(F)(F)C(F)(F)C(=O)O"
Reply: inactive

Ask: For this molecule, state the assay outcome: "O=S(=O)(O)c1cc(O)c2c(O)c(/N=N/c3cccc4ccccc34)c(S(=O)(=O)O)cc2c1"
Reply: inactive

Ask: For this molecule, state the assay outcome: Nc1ccn(C2OC(CO)C(O)C2O)c(=O)n1 (configuration not stated)
Reply: inactive

Ask: For this molecule, state the assay outcome: "O=C1C(Cl)=C(N[C@@H](Cc2ccccc2)C(=O)OCc2ccccc2)C(=O)c2c(O)ccc(O)c21"
Reply: inactive

Ask: For this molecule, state the assay outcome: "CC1CCN(CC(=O)N2c3ccccc3Sc3cc4ccccc4cc32)CC1"
Reply: inactive

Ask: For this molecule, state the assay outcome: "Nc1ccc(Nc2cc(=O)[nH]c(=O)[nH]2)cc1Cl"
Reply: inactive

Ask: For this molecule, state the assay outcome: CCOC(=O)Oc1c(OC)cc(C(=O)NC2CCc3cc(OC)c(OC)c(OC)c3-c3ccc(SC)c(=O)cc32)cc1OC (configuration not stated)
Reply: active

Ask: For this molecule, state the assay outcome: "O=[N+]([O-])c1ccc(C(c2c[nH]c3ccccc23)c2c[nH]c3ccccc23)cc1"
Reply: inactive

Ask: For this molecule, state the assay outcome: "CC1=C(c2cc(C(=O)Nc3ccc(Cl)cc3)nc(S)n2)Sc2ccccc2N1"
Reply: inactive

Ask: For this molecule, state the assay outcome: "CCOC(=O)/C(C(=O)c1ccc[nH]1)=C1/CCCN1C"
Reply: inactive

Ask: For this molecule, state the assay outcome: Cc1cccc(C)c1NC(=O)C(=O)C(C(=O)c1ccccc1-c1ccccc1)C1OC(=O)c2ccccc21 (configuration not stated)
Reply: inactive

Ask: For this molecule, state the assay outcome: "COc1cc2c(cc1O)[C@@]1(Cc3ccc(OC)c(OC)c3)CCC(=O)N1CC2"
Reply: inactive

Ask: For this molecule, state the assay outcome: "Cc1nnc2c3c(-c4ccccc4)c(-c4ccccc4)oc3nc(N(C)C)n12"
Reply: inactive

Ask: For this molecule, state the assay outcome: "[N-]=[N+]=Nc1ccccc1Oc1ccccc1"
Reply: inactive
